Recorded measurements of protein stability index, one per entry
B1: PTPN9 (parent)
chain: NKWTVQYNVSPLSWNVAVKFLMAR

- Variants of: B1
- method summary: protein stability index of a GFP-peptide fusion (GPS, HEK-293T) (PSI 1-6); higher = more stable;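 note: lentivirally expressed fusions sorted by FACS into six bins by GFP to DsRed ratio, PSI derived from sequencing read proportions per bin multiplied by bin number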
- measurement context: c terminus: a fixed tail appended
Give only the figure.

Below, 8 variants whose answers are already recorded.
NKWTVCYNVSPLSWNVAVKFLMAR: 2.98
NKWTVQYNVSLLSWNVAVKFLMAR: 2.59
NKWTVQYNASPLSWNVAVKFLMAR: 3.1
NKWTVQYNVSPLSWNVARKFLMAR: 2.08
NRWTVQYNVSPLSWNVAVKFLMAR: 1.66
NKWTVQYNVSPLSWNLAVKFLMAR: 2.38
NKWTVQYNVSPLSWNVAVKFLDAR: 2.27
NKWTVQVNVSPLSWNVAVKFLMAR: 3.44

// lookup protein stability index for NKWTVQYNVSPLSWNYAVKFLMAR
2.6

So what's the measured protein stability index for this one? NKWTVQYNVSPLSWNKAVKFLMAR
3.3

I am curious: what protein stability index value has been reported for NKSTVQYNVSPLSWNVAVKFLMAR ?
2.1

Which value of protein stability index has been reported for NKWTVQYNVSPLSWNVAVKFLMCR in the records?
1.95

Given the variant NKWTVQYNVSPLSWNVAVKFYMAR , what is its reported protein stability index?
2.89

Suppose we examine the variant NKWTGQYNVSPLSWNVAVKFLMAR ; what protein stability index value has been reported?
2.31
